Where do these numbers come from? They come from ChEMBL document CHEMBL4765313.

# System: SH-SY5Y
# PROCEDURE SUMMARY: Cytotoxicity against human SH-SY5Y cells assessed as reduction in cell viability incubated for 72 hrs by MTT assay
# Format: ADME, cell-based
READOUT KIND: IC50 (µM)
Numbers only, in µM.

[[record]]
chemical_smiles = "O=C(CN1CCN(C(=O)c2ccc(Cl)cc2)CC1)N1CCN(CCCc2c[nH]c3ccc(F)cc23)CC1"
readout_kind = "IC50"
measured_value = 125


Batch: IC50 for all items listed.
1. COc1ccc(C(=O)N2CCN(CC(=O)N3CCN(CCCc4c[nH]c5ccc(F)cc45)CC3)CC2)cc1
2. COc1ccc2[nH]cc(CCCN3CCN(C(=O)CN4CCN(C(=O)c5ccc(Br)cc5)CC4)CC3)c2c1

### Response
1: 161; 2: 150

Batch: IC50 for all items listed.
1. O=C(CN1CCN(C(=O)c2ccc(Br)cc2)CC1)N1CCN(CCCc2c[nH]c3ccccc23)CC1
2. O=C(CN1CCN(C(=O)c2ccc(Br)cc2)CC1)N1CCN(CCCc2c[nH]c3ccc(F)cc23)CC1
3. O=C(CN1CCN(C(=O)c2ccccc2)CC1)N1CCN(CCCc2c[nH]c3ccc(F)cc23)CC1
4. O=C(CN1CCN(C(=O)c2ccc(Cl)cc2)CC1)N1CCN(CCCc2c[nH]c3ccccc23)CC1
5. O=C(CN1CCN(C(=O)c2ccccc2Br)CC1)N1CCN(CCCc2c[nH]c3ccc(F)cc23)CC1
6. O=C(CN1CCN(C(=O)c2ccc(F)cc2)CC1)N1CCN(CCCc2c[nH]c3ccc(F)cc23)CC1
7. COc1ccc(C(=O)N2CCN(CC(=O)N3CCN(CCCc4c[nH]c5ccccc45)CC3)CC2)cc1
8. COc1ccc2[nH]cc(CCCN3CCN(C(=O)CN4CCN(C(=O)c5ccc(Cl)cc5)CC4)CC3)c2c1

### Response
59.3
47.4
146
139
79.1
121
148
158

====

For each of the compounds below, state its IC50.
# Test system: SH-SY5Y
# PROCEDURE SUMMARY: Cytotoxicity against human SH-SY5Y cells assessed as reduction in cell viability incubated for 72 hrs by MTT assay
# Assay type: ADME, cell-based

A selection of reference data follows.
[[record]]
chemical_smiles = "COc1ccc2[nH]cc(CCCN3CCN(C(=O)CN4CCN(C(=O)c5ccccc5)CC4)CC3)c2c1"
measured_value = "> 200 µM"

[[record]]
chemical_smiles = "COc1ccc2[nH]cc(CCCN3CCN(C(=O)CN4CCN(C(=O)c5cccc(F)c5)CC4)CC3)c2c1"
measured_value = "> 200 µM"

[[record]]
chemical_smiles = "COc1ccc2[nH]cc(CCCN3CCN(C(=O)CN4CCN(C(=O)c5cccc(Br)c5)CC4)CC3)c2c1"
measured_value = "105 µM"


Batch: IC50 for all items listed.
1. O=C(CN1CCN(C(=O)c2cccc(F)c2)CC1)N1CCN(CCCc2c[nH]c3ccccc23)CC1
2. COc1cccc(C(=O)N2CCN(CC(=O)N3CCN(CCCc4c[nH]c5ccccc45)CC3)CC2)c1
3. Cc1ccc(C(=O)N2CCN(CC(=O)N3CCN(CCCc4c[nH]c5ccccc45)CC3)CC2)cc1
4. O=C(CN1CCN(C(=O)c2cccc(F)c2)CC1)N1CCN(CCCc2c[nH]c3ccc(F)cc23)CC1
5. COc1cccc(C(=O)N2CCN(CC(=O)N3CCN(CCCc4c[nH]c5ccc(OC)cc45)CC3)CC2)c1

### Response
165 µM
> 200 µM
> 200 µM
169 µM
> 200 µM

====

# Test system: SH-SY5Y
# PROCEDURE SUMMARY: Cytotoxicity against human SH-SY5Y cells assessed as reduction in cell viability incubated for 72 hrs by MTT assay
# Format: ADME, cell-based
pIC50: −log10 of the molar value.
For each of the molecules below, state its pIC50.

A selection of reference data follows.
[[record]]
chemical_smiles = "COc1ccc2[nH]cc(CCCN3CCN(C(=O)CN4CCN(C(=O)c5cccc(Cl)c5)CC4)CC3)c2c1"
test_target = "SH-SY5Y"
measured_value = "< 3.70"

[[record]]
chemical_smiles = "COc1ccc2[nH]cc(CCCN3CCN(C(=O)CN4CCN(C(=O)c5ccc(C)cc5)CC4)CC3)c2c1"
test_target = "SH-SY5Y"
measured_value = "< 3.70"

[[record]]
chemical_smiles = "O=C(CN1CCN(C(=O)c2cccc(Cl)c2)CC1)N1CCN(CCCc2c[nH]c3ccccc23)CC1"
test_target = "SH-SY5Y"
measured_value = 3.92


### Prompt Find the measured pIC50 of "COc1ccc2[nH]cc(CCCN3CCN(C(=O)CN4CCN(C(=O)c5ccc(F)cc5)CC4)CC3)c2c1" and report it.
### Response < 3.70
